Biological target: Rap guanine nucleotide exchange factor 3 (Homo sapiens) (UniProt O95398)
Experiment: Counterscreen qHTS for agonist of cAMP-regulated guanine nucleotide exchange factor 3 (EPAC1) (AID 1645889); further: % of control where 0% means no effect; nearly all actives have a fitted effect of over 40% in size
Settings: EPAC1 Rap1B-BODIPY-GDP exchange, fluorescence; series mostly up to 154 µM
Source text: Assay Provider (PI): Xiaodong Cheng Ph.D. The University of Texas Medical Branch, […], TX MLPCN Grant: NS066510 In multi-cellular eukaryotic organisms, the effects of cAMP are transduced by two ubiquitously-expressed intracellular cAMP receptors, the classic protein kinase A/cAMP-dependent protein kinase (PKA/cAPK) and the more recently discovered exchange protein directly activated by cAMP/cAMP-regulated guanine nucleotide exchange factor (EPAC/cAMP-GEF). […]
Results filed as inconclusive are left out. Activity calls are given as the source filed them. The call rests on the fitted dose curve; in most records, active means well fitted activation curve with a large enough effect; inconclusive means small, poorly fitted or top-dose-only effect, or another doubt; inactive means no such curve, though single readings can be large or run the other way.
parameter: activation

// below: answered molecules
- Cc1ccc(S(=O)(=O)NCCC(=O)N2CCC(Cc3ccccc3)CC2)cc1: 8.49% [at 30.8 µM] (inactive)
- O=S(=O)(c1ccc(Cl)c2ccccc12)N1CCCC1: inactive
- CC(=O)Nc1c(C)nn(-c2ccccc2)c1N1CCC(C(=O)NCc2cccc(F)c2)CC1: inactive
- COc1ccc(-c2nc3ccccc3n2CCC(C)C)cc1OC: inactive
- CCCC(=O)NCCCc1nc2ccccc2n1C: inactive
- COc1ccccc1-c1oc2ccccc2c1-c1ccc2c(c1)OCO2: inactive
- Brc1ccc(/C=N/Nc2nc3ccccc3o2)cc1: inactive
- CC(C)=CCC[C@H](C)C[C@@H]1Cc2[nH][nH]c(=O)c2[C@H](c2ccc(F)cc2)O1: inactive

Field: activation. Fill in for each record below.
1. CCc1ccc(N=C2NC(=O)/C(=C/c3ccc(OCC(=O)O)cc3)S2)cc1
2. O=C(N/N=C/c1ccccc1O)c1ccc2c(c1)OCO2
3. COc1ccc(-n2c(C)cc(/C=C3\SC(=O)NC3=O)c2C)cc1
4. COC(=O)c1ccc2nc(-c3cccc(Br)c3)c(Cc3ccsc3)n2c1
5. COc1cc(CN2C(=O)C(C)ON=C2c2ccccc2F)cc(OC)c1 (stereo not drawn)
6. Cc1ccc(S(=O)(=O)CC(=O)c2cc3cccc(C)c3oc2=O)cc1

A.
1. 14.2% [at 30.8 µM] (inactive)
2. inactive
3. inactive
4. 17.8% [at 30.8 µM] (inactive)
5. inactive
6. inactive
